- TESTED SYSTEM: T1, human CD19 (human, UniProt P15391 20-556)
- T1 construct: also called B-cell surface antigen B4; B-cell antigen CD19
- T1 sequence: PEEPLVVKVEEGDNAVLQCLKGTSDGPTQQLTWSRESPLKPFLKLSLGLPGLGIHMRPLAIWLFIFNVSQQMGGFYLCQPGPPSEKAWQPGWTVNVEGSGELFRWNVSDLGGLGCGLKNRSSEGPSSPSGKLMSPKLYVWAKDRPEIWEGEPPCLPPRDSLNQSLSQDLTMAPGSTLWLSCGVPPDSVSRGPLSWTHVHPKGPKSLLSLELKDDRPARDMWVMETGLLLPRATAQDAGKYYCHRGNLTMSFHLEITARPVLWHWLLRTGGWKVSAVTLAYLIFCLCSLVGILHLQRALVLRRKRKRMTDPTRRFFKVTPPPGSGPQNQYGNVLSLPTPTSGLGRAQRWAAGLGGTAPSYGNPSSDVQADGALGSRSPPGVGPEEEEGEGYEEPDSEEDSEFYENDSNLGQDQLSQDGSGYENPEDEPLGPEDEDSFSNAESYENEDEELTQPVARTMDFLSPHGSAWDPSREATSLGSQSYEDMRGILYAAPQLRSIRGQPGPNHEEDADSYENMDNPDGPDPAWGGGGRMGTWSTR
- TEST DESCRIPTION: binding affinity relative to the parent H1L1 mAb (Example 5); assay and format not named on the sheet
Kindly state Fold change binding for each of the entries shown.
Numbers only, in fold.

BINDER	MEASURED PARAMETER	MEASUREMENT UNITS	RESULT NUMBER
H1.201 / L1.161 (antibody, V domains shown, vs H1L1 (Kabat): VH D55S/S100cT; VL L27cQ/S27eV/G29S/A55N/F96I; also called 4G7 H1.201_L1.161) VH: EVQLVESGGGLVKPGGSLKLSCAASGYTFTSYVMHWVRQAPGKGLEWIGYINPYNSGTKYNEKFQGRVTISSDKSISTAYMELSSLRSEDTAMYYCARGTYYYGTRVFDYWGQGTLVTVSS VL: DIVMTQSPATLSLSPGERATLSCRSSKSLQNVNSNTYLYWFQQKPGQSPQLLIYRMSNLNSGVPDRFSGSGSGTEFTLTISSLEPEDFAVYYCMQHLEYPITFGAGTKLEIK	Fold change binding	fold	3.89

For the next question, use this binder.
input: Data request, read-out Fold change binding, for H1.191 / L1.161 (antibody, V domains shown, vs H1L1 (Kabat): VH K58E/S100cT; VL L27cQ/S27eV/G29S/A55N/F96I; also called 4G7 H1.191_L1.161) VH: EVQLVESGGGLVKPGGSLKLSCAASGYTFTSYVMHWVRQAPGKGLEWIGYINPYNDGTEYNEKFQGRVTISSDKSISTAYMELSSLRSEDTAMYYCARGTYYYGTRVFDYWGQGTLVTVSS VL: DIVMTQSPATLSLSPGERATLSCRSSKSLQNVNSNTYLYWFQQKPGQSPQLLIYRMSNLNSGVPDRFSGSGSGTEFTLTISSLEPEDFAVYYCMQHLEYPITFGAGTKLEIK
output: 3.97
